Values compiled from paper PMC9814530.

Target: ACE2 (Homo sapiens)
Sequence (Q9BYF1 18-740 limits assumed): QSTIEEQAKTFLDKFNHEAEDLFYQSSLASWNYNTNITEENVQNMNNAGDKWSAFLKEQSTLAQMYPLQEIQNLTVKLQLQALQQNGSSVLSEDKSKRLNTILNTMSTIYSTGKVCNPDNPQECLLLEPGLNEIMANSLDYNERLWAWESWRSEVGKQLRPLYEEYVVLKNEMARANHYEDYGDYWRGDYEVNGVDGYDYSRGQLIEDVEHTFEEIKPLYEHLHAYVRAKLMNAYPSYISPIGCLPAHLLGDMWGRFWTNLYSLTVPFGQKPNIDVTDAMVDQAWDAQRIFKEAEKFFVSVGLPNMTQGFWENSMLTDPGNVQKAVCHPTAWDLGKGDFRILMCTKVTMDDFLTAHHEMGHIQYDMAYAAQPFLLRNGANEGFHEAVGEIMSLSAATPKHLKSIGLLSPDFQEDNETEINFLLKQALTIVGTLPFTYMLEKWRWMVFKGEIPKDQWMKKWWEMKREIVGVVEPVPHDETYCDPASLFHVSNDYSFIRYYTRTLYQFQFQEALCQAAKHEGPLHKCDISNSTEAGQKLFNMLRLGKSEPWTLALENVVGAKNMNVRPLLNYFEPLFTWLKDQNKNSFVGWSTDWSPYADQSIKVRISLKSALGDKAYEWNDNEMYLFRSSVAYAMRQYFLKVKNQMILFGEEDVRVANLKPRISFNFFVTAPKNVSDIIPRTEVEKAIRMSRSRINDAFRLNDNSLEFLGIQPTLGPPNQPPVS
Assay: Bio-layer interferometry (BLI) binding of immobilized biotinylated peptides to ACE2
Conditions: BLI, biotinylated peptide on streptavidin tips, ACE2 1000-62.5 nM, 30 °C, global 1:1 fit; read-out: KD (dissociation constant) to ACE2
Description: Peptide binding validation was carried out using the ForteBio Octet RED96 system. The chamber temperature was kept constant at 30 °C with a plate agitation speed at 1000 rpm. Briefly, streptavidin (SA)-coated biosensor tips were dipped into 200 μL of 1.0–2.0 μM biotinylated peptide solution (in a kinetic buffer (K.B.): 1 × PBS with 0.1% BSA and 0.02% Tween-20) for peptides immobilization. […] affinity was reported using the kinetic fitting results ( KD is calculated by divide the […]
Where no end group is shown, it is not given here.

[
  {
    "substance": "LHKQFGWHWFGFK-NH2 [ABP C3]",
    "Kd / nM": 35
  },
  {
    "substance": "LQWHPAYWFMQVK-NH2 [ABP C8]",
    "Kd / nM": 36
  },
  {
    "substance": "LQRGVFGFPYRVK-NH2 [ABP C7]",
    "Kd / nM": 26
  }
]

* * *

tested on: 12ca5; assay: BLI binding to an unrelated (off-target) protein; conditions: BLI, 12ca5 at 500 nM
*1 amine or outer side, *2 acyl side, *3 side chain or, on linkers, in order; H or OH if unused. Where a SMILES comes first, the peptide text is derived from it. [ ]: non-standard residue; d: D form. Phe(3,4-(OMe)2) = COc1ccc(C[C@H](N)C(=O)O)cc1OC; Phe(3,4-F2) = N[C@@H](Cc1ccc(F)c(F)c1)C(=O)O; Ala(4-thiazolyl) = N[C@@H](Cc1cscn1)C(=O)O; X1 = O=C(C1(c2ccccc2)CCN([*:1])CC1)[*:2]; Met(O2) = CS(=O)(=O)CC[C@H](N)C(=O)O; Ala(cPr) = N[C@@H](CC1CC1)C(=O)O; Hyp = O=C(O)[C@@H]1C[C@@H](O)CN1; hArg = N=C(N)NCCCC[C@H](N)C(=O)O; Cha = N[C@@H](CC1CCCCC1)C(=O)O; 4Amb = NCc1ccc(C(=O)O)cc1; Orn = NCCC[C@H](N)C(=O)O; βAla = NCCC(=O)O
value kind: binding to unrelated protein 12ca5 (in words)

[
  {
    "compound": "CS(=O)(=O)CC[C@H](NC(=O)[C@H]1CCCN1C(=O)[C@H](CCC(N)=O)NC(=O)CNC(=O)[C@H](Cc1ccc(F)c(F)c1)NC(=O)[C@H](Cc1cscn1)NC(=O)[C@@H](N)CC1CC1)C(=O)N[C@@H](CC1CCCCC1)C(=O)N[C@@H](CCC(N)=O)C(=O)N[C@@H](Cc1cscn1)C(=O)NCCC(=O)N[C@@H](Cc1cscn1)C(=O)N[C@@H](CCCCN)C(N)=O [ABP N5] (H-[Ala(cPr)][Ala(4-thiazolyl)][Phe(3,4-F2)]GQ[dP][Met(O2)][Cha]Q[Ala(4-thiazolyl)][βAla][Ala(4-thiazolyl)]K-NH2; N-terminus assumed)",
    "result": "No apparent binding"
  },
  {
    "compound": "CS(=O)(=O)CC[C@H](NC(=O)[C@H](Cc1ccc(F)c(F)c1)NC(=O)[C@H](CCCN)NC(=O)[C@@H](N)CC1CC1)C(=O)N1C[C@H](O)C[C@H]1C(=O)N[C@@H](Cc1cscn1)C(=O)N1CCC[C@@H]1C(=O)N[C@@H](CCC(N)=O)C(=O)N[C@@H](Cc1ccc(F)c(F)c1)C(=O)N[C@@H](CC1CCCCC1)C(=O)N[C@@H](CC1CCCCC1)C(=O)NCCC(=O)N[C@@H](CCCCN)C(N)=O [ABP N6] (H-[Ala(cPr)][Orn][Phe(3,4-F2)][Met(O2)][Hyp][Ala(4-thiazolyl)][dP]Q[Phe(3,4-F2)][Cha][Cha][βAla]K-NH2)",
    "result": "minimal binding"
  },
  {
    "compound": "COc1ccc(C[C@H](NC(=O)[C@H](Cc2ccc(F)c(F)c2)NC(=O)[C@@H]2C[C@@H](O)CN2C(=O)[C@H]2CCCN2C(=O)[C@H]2CCCN2C(=O)CNC(=O)[C@H](CC2CC2)NC(=O)[C@H](Cc2cscn2)NC(=O)[C@@H](N)CC2CC2)C(=O)N[C@@H](Cc2cscn2)C(=O)NCCC(=O)NCc2ccc(C(=O)N[C@@H](CCCCN)C(N)=O)cc2)cc1OC [ABP N4] (H-[Ala(cPr)][Ala(4-thiazolyl)][Ala(cPr)]G[dP][dP][Hyp][Phe(3,4-F2)][Phe(3,4-(OMe)2)][Ala(4-thiazolyl)][βAla][4Amb]K-NH2)",
    "result": "minimal binding"
  },
  {
    "compound": "CS(=O)(=O)CC[C@H](NC(=O)[C@H](Cc1ccc(F)c(F)c1)NC(=O)[C@H](CCS(C)(=O)=O)NC(=O)[C@H](CC1CCCCC1)NC(=O)[C@H](CC(=O)O)NC(=O)C1(c2ccccc2)CCN(C(=O)CCNC(=O)CNC(=O)[C@H]2CCCN2C(=O)[C@H](CCCCNC(=N)N)NC(=O)[C@H](Cc2cscn2)NC(=O)[C@@H](N)CC2CC2)CC1)C(=O)N[C@@H](CCCCN)C(N)=O [ABP N8] (H-[Ala(cPr)][Ala(4-thiazolyl)][hArg][dP]G[βAla][X1]D[Cha][Met(O2)][Phe(3,4-F2)][Met(O2)]K-NH2; N-terminus assumed)",
    "result": "No apparent binding"
  }
]
